# Test system: Enterococcus faecalis 848 (VRE, Van A)
# test.description: MIC by broth microdilution, EFc 848
# Type: cell-based
# applied.conditions: Enterococcus faecalis, VRE, read-out: MIC E FC 848, Enterococcus faecalis 848 (VRE, Van A); class symbols
Assignment: determine reported MIC for the given compounds.

INPUT: # input compound: CCCCCCCOc1ccc(S(=O)(=O)NCCCCCCNC(=O)Oc2cc(O)c3c(c2)[C@@H](C(=O)O)NC(=O)[C@H]2NC(=O)[C@H](NC(=O)[C@@H]4NC(=O)[C@H](CC(N)=O)NC(=O)[C@H](NC(=O)[C@@H](CC(C)C)NC)[C@H](O)c5ccc(c(Cl)c5)Oc5cc4cc(c5O[C@@H]4O[C@H](CO)[C@@H](O)[C@H](O)[C@H]4O[C@H]4C[C@](C)(N)[C@H](O)[C@H](C)O4)Oc4ccc(cc4Cl)[C@H]2O)c2ccc(O)c-3c2)cc1 (atropisomer, axis not shown) ; wanted: its MIC
OUTPUT: 1 to 2 µg/mL

INPUT: # input compound: CCCCc1ccc(NC(=O)Oc2cc(O)c3c(c2)[C@@H](C(=O)NC2C4CC5CC(C4)CC2C5)NC(=O)[C@H]2NC(=O)[C@H](NC(=O)[C@@H]4NC(=O)[C@H](CC(N)=O)NC(=O)[C@H](NC(=O)[C@@H](CC(C)C)NC)[C@H](O)c5ccc(c(Cl)c5)Oc5cc4cc(c5O[C@@H]4O[C@H](CO)[C@@H](O)[C@H](O)[C@H]4O[C@H]4C[C@](C)(N)[C@H](O)[C@H](C)O4)Oc4ccc(cc4Cl)[C@H]2O)c2ccc(O)c-3c2)cc1 (some centres unmarked) ; wanted: its MIC
OUTPUT: > 16 µg/mL

###

# Test system: Enterococcus faecalis 848 (VRE, Van A)
# test.description: MIC by broth microdilution, EFc 848
# Format: cell-based
# applied.conditions: Enterococcus faecalis, VRE, read-out: MIC E FC 848, Enterococcus faecalis 848 (VRE, Van A); class symbols
Assignment: determine reported MIC for the given molecules.

INPUT: # input molecule: CCCOc1ccc(NC(=O)Oc2cc(O)c3c(c2)[C@@H](C(=O)O)NC(=O)[C@H]2NC(=O)[C@H](NC(=O)[C@@H]4NC(=O)[C@H](CC(N)=O)NC(=O)[C@H](NC(=O)[C@@H](CC(C)C)NC)[C@H](O)c5ccc(c(Cl)c5)Oc5cc4cc(c5O[C@@H]4O[C@H](CO)[C@@H](O)[C@H](O)[C@H]4O[C@H]4C[C@](C)(N)[C@H](O)[C@H](C)O4)Oc4ccc(cc4Cl)[C@H]2O)c2ccc(O)c-3c2)cc1 (atropisomer, axis not shown) ; wanted: its MIC
OUTPUT: > 16 µg/mL

INPUT: # input molecule: CCCCCCCCNC(=O)Oc1cc(O)c2c(c1)[C@@H](C(=O)NC1C3CC4CC(C3)CC1C4)NC(=O)[C@H]1NC(=O)[C@H](NC(=O)[C@@H]3NC(=O)[C@H](CC(N)=O)NC(=O)[C@H](NC(=O)[C@@H](CC(C)C)NC)[C@H](O)c4ccc(c(Cl)c4)Oc4cc3cc(c4OC3OC(CO)C(O)C(O)C3OC3CC(C)(N)C(O)C(C)O3)Oc3ccc(cc3Cl)[C@H]1O)c1ccc(O)c-2c1 (stereo partly drawn) ; wanted: its MIC
OUTPUT: 2 to 4 µg/mL

INPUT: # input molecule: CNCCOc1ccc(CCNC(=O)Oc2cc(O)c3c(c2)[C@@H](C(=O)NC2C4CC5CC(C4)CC2C5)NC(=O)[C@H]2NC(=O)[C@H](NC(=O)[C@@H]4NC(=O)[C@H](CC(N)=O)NC(=O)[C@H](NC(=O)[C@@H](CC(C)C)NC)[C@H](O)c5ccc(c(Cl)c5)Oc5cc4cc(c5O[C@@H]4O[C@H](CO)[C@@H](O)[C@H](O)[C@H]4O[C@H]4C[C@](C)(N)[C@H](O)[C@H](C)O4)Oc4ccc(cc4Cl)[C@H]2O)c2ccc(O)c-3c2)cc1 (stereo partly drawn) ; wanted: its MIC
OUTPUT: > 16 µg/mL

INPUT: # input molecule: CCCCCCc1ccc(S(=O)(=O)NCCCCCNC(=O)Oc2cc(O)c3c(c2)[C@@H](C(=O)O)NC(=O)[C@H]2NC(=O)[C@H](NC(=O)[C@@H]4NC(=O)[C@H](CC(N)=O)NC(=O)[C@H](NC(=O)[C@@H](CC(C)C)NC)[C@H](O)c5ccc(c(Cl)c5)Oc5cc4cc(c5O[C@@H]4O[C@H](CO)[C@@H](O)[C@H](O)[C@H]4O[C@H]4C[C@](C)(N)[C@H](O)[C@H](C)O4)Oc4ccc(cc4Cl)[C@H]2O)c2ccc(O)c-3c2)cc1 (atropisomer, axis not shown) ; wanted: its MIC
OUTPUT: 4 to 8 µg/mL

INPUT: # input molecule: CCCCCOc1ccc(S(=O)(=O)NCCCCCCNC(=O)Oc2cc(O)c3c(c2)[C@@H](C(=O)O)NC(=O)[C@H]2NC(=O)[C@H](NC(=O)[C@@H]4NC(=O)[C@H](CC(N)=O)NC(=O)[C@H](NC(=O)[C@@H](CC(C)C)NC)[C@H](O)c5ccc(c(Cl)c5)Oc5cc4cc(c5O[C@@H]4O[C@H](CO)[C@@H](O)[C@H](O)[C@H]4O[C@H]4C[C@](C)(N)[C@H](O)[C@H](C)O4)Oc4ccc(cc4Cl)[C@H]2O)c2ccc(O)c-3c2)cc1 (atropisomer, axis not shown) ; wanted: its MIC
OUTPUT: 8 to 16 µg/mL

INPUT: # input molecule: CCOCCOCCNC(=O)Oc1cc(O)c2c(c1)[C@@H](C(=O)O)NC(=O)[C@H]1NC(=O)[C@H](NC(=O)[C@@H]3NC(=O)[C@H](CC(N)=O)NC(=O)[C@H](NC(=O)[C@@H](CC(C)C)NC)[C@H](O)c4ccc(c(Cl)c4)Oc4cc3cc(c4O[C@@H]3O[C@H](CO)[C@@H](O)[C@H](O)[C@H]3O[C@H]3C[C@](C)(N)[C@H](O)[C@H](C)O3)Oc3ccc(cc3Cl)[C@H]1O)c1ccc(O)c-2c1 (atropisomer, axis not shown) ; wanted: its MIC
OUTPUT: > 16 µg/mL
